Target: human Branched Chain Amino Acid Aminotransferase cytosolic form (hBCATc) (Homo sapiens)
Sequence (P54687 1-386): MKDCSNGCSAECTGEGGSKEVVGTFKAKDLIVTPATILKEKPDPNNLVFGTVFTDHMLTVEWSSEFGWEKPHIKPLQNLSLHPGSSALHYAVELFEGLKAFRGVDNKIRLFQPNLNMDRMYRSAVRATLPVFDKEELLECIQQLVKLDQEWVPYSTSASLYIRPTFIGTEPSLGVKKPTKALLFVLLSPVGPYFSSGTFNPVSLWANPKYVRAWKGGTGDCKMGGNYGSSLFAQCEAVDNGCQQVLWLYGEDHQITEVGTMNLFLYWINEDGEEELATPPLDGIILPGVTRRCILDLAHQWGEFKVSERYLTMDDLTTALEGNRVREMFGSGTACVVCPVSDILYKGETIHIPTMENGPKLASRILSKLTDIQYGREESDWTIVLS
Test: In vitro coupled enzyme assay (glutamate dehydrogenase, NADH formation), human BCATc
Conditions: recombinant human BCATc, 37° C., 25 mM phosphate buffer pH 7.8; several values in a cell = repeat determinations; read-out: RhBCATc
pIC50: −log10 of the molar value.
result.type: pIC50

- molecule: "O=C(NNS(=O)(=O)c1cc(C(F)(F)F)ccc1Cl)c1ccc2oc3ccccc3c2c1 [Example 97]"
  measured.target: "human Branched Chain Amino Acid Aminotransferase cytosolic form (hBCATc) (Homo sapiens)"
  pIC50: 4.17
- molecule: "COc1c(C(=O)NNS(=O)(=O)c2ccccc2)oc2c(-c3ccccc3)cccc12 [Example 67]"
  measured.target: "human Branched Chain Amino Acid Aminotransferase cytosolic form (hBCATc) (Homo sapiens)"
  pIC50: 4.76
- molecule: "Cc1cccc2oc(C(=O)NNS(=O)(=O)c3ccccc3)cc12 [Example 87]"
  measured.target: "human Branched Chain Amino Acid Aminotransferase cytosolic form (hBCATc) (Homo sapiens)"
  pIC50: 4.39
- molecule: "COc1ccc2c(OC)c(C(=O)NNS(=O)(=O)c3ccccc3)oc2c1 [Example 59]"
  measured.target: "human Branched Chain Amino Acid Aminotransferase cytosolic form (hBCATc) (Homo sapiens)"
  pIC50: 5.47
- molecule: "O=C(NNS(=O)(=O)c1ccc(F)cc1Cl)c1ccc2oc3ccccc3c2c1 [Example 25]"
  measured.target: "human Branched Chain Amino Acid Aminotransferase cytosolic form (hBCATc) (Homo sapiens)"
  pIC50: 4.66

[P] O=C(NNS(=O)(=O)c1ccccc1)c1cc2cc(Cl)ccc2o1 [Example 8]
[Q] O=C(NNS(=O)(=O)c1ccc(F)cc1)c1cc2cc(Cl)ccc2o1 [Example 22]
[R] O=C(O)c1ccc(S(=O)(=O)NNC(=O)c2ccc3oc4ccccc4c3c2)cc1 [Example 101]
[S] COc1cccc(S(=O)(=O)NNC(=O)c2cc3cccc(OC)c3o2)c1 [Example 109]
// sort entries: pIC50, high to low Give me the labels in the order the question wants. P, S, Q, R

----------
A collection of compounds and their measured melting point

# annotated cases, reported melting point shown
- compound: "Nc1ccc2oc(C(=O)NNS(=O)(=O)c3ccccc3)cc2c1 (hydrate or solvate)"
  melting point: "206.9 to 207.7 °C"
- compound: "CCOc1c(C(=O)NNS(=O)(=O)c2ccccc2)oc2ccc(-c3ccccc3)cc12"
  melting point: "184.3 to 184.6 °C"

Field melting point (entry COc1ccc2oc(C(=O)NNS(=O)(=O)c3ccccc3)c(OC)c2c1 ) reads 172.2 to 173.8 °C

Lookup result for O=C(NNS(=O)(=O)c1ccccc1[N+](=O)[O-])c1ccc2oc3ccccc3c2c1 ; measured melting point: 223.4 to 224.1 °C

Noted for COc1c(C(=O)NNS(=O)(=O)c2ccccc2)oc2c(-c3ccccc3)cccc12 (hydrate or solvate) : its melting point reads 186.7 to 187.3 °C

----------
Molecular target: rat BCAT cytosolic form (Rattus norvegicus)
Assay: In vitro coupled enzyme assay (glutamate dehydrogenase, NADH formation), rat BCATc
Details: recombinant rat BCATc, 37° C., 25 mM phosphate buffer pH 7.8; several values in a cell = repeat determinations; read-out: RrBCATc
pIC50: −log10 of the molar value.
result.type: pIC50

Known pIC50 results, listed for orientation:
- smiles.input: "COc1ccc2oc(C(=O)NNS(=O)(=O)c3ccccc3)cc2c1"
  pIC50: 5.91
- smiles.input: "COc1c(C(=O)NNS(=O)(=O)c2ccccc2)oc2c(OC)cccc12"
  pIC50: 7.00
- smiles.input: "Cc1ccc(F)cc1S(=O)(=O)NNC(=O)c1ccc2oc3ccccc3c2c1"
  pIC50: 5.96
- smiles.input: "Cc1c(Cl)cccc1S(=O)(=O)NNC(=O)c1ccc2oc3ccccc3c2c1"
  pIC50: 6.66
- smiles.input: "COc1cccc2cc(C(=O)NNS(=O)(=O)c3cccc(Cl)c3)oc12"
  pIC50: 6.43

[A] COc1ccc(Br)cc1S(=O)(=O)NNC(=O)c1cc2cccc(OC)c2o1
[B] COc1ccc2oc(C(=O)NNS(=O)(=O)c3ccccc3)c(OC)c2c1
[C] COc1c(C(=O)NNS(=O)(=O)c2ccccc2)oc2c(-c3ccccc3)cccc12
Put the compounds in ascending order of pIC50. // rank by listing labels in the order requested A, C, B

----------
List of melting point values.

Recorded melting point, per entry:
- compound: "Cc1ccccc1S(=O)(=O)NNC(=O)c1cc2cc(Cl)cc(Cl)c2o1"
  melting point: "212 to 214 °C"
- compound: "CC(C)Nc1ccc2oc(C(=O)NNS(=O)(=O)c3ccccc3)cc2c1"
  melting point: "94.7 to 95.5 °C"
- compound: "O=C(NNS(=O)(=O)c1ccccc1)c1cc2cc([N+](=O)[O-])ccc2o1 (hydrate or solvate)"
  melting point: "207.7 to 208.1 °C"
- compound: "O=C(NNS(=O)(=O)c1cc(Cl)cc(Cl)c1)c1cc2cc(Cl)ccc2o1"
  melting point: "242.5 to 243.3 °C"
- compound: "CN(C)c1ccccc1S(=O)(=O)NNC(=O)c1ccc2oc3ccccc3c2c1.Cl"
  melting point: "103.2 to 103.9 °C"
- compound: "O=C(NNS(=O)(=O)c1ccccc1)c1ccc2ncccc2c1 (hydrate or solvate)"
  melting point: "211 to 214 °C"
- compound: "Cc1ccc2oc(C(=O)NNS(=O)(=O)c3cccc(Cl)c3)cc2c1 (hydrate or solvate)"
  melting point: "186.1 to 186.3 °C"
- compound: "Cc1ccc2oc(C(=O)NNS(=O)(=O)c3cccc(Br)c3)cc2c1 (hydrate or solvate)"
  melting point: "207.2 to 209.9 °C"
- compound: "Cc1c(Cl)cccc1S(=O)(=O)NNC(=O)c1ccc2oc3ccccc3c2c1"
  melting point: "192 to 194 °C"
- compound: "COc1cccc(S(=O)(=O)NNC(=O)c2cc3cc(Cl)ccc3o2)c1"
  melting point: "204.3 to 204.6 °C"

The reported melting point of the compound COc1c(C(=O)NNS(=O)(=O)c2ccccc2C(F)(F)F)oc2c(OC)cccc12 (hydrate or solvate) was 190.6 to 192.3 °C

Item: O=C(NNS(=O)(=O)c1ccccc1C(F)(F)F)c1cnc2ccccc2c1 | melting point: 203.6 to 204.4 °C

The recorded melting point for O=C(NNS(=O)(=O)c1ccccc1OC(F)(F)F)c1cnc2ccccc2c1 is 175.1 to 175.9 °C

// O=C(NNS(=O)(=O)c1ccc([N+](=O)[O-])cc1)c1ccc2oc3ccccc3c2c1 : melting point value = 239.3 to 239.9 °C

Record summary for O=C(NNS(=O)(=O)c1cccc(Br)c1)c1ccc2ncccc2c1 : reported melting point = 216 to 216.8 °C

melting point measured on COc1ccc2cc(C(=O)NNS(=O)(=O)c3ccccc3)oc2c1 (hydrate or solvate) = 224.9 to 225.8 °C

In plain terms, O=C(NNS(=O)(=O)c1cccc(Cl)c1)c1ccc2oc3ccccc3c2c1 has a documented melting point of 208 to 209 °C

----------
result.type: melting point

Record O=C(NNS(=O)(=O)c1ccccc1)c1ccnc2ccccc12 . Reported melting point: 153 to 156 °C

Looking up O=C(NNS(=O)(=O)c1ccccc1)c1cc2cc(Cl)cc(Cl)c2o1 , I found its melting point recorded as 216.4 to 218.1 °C

The recorded melting point for entry N#Cc1cccc(S(=O)(=O)NNC(=O)c2ccc3oc4ccccc4c3c2)c1 equals 234 to 236 °C

Form: compound = O=C(NNS(=O)(=O)c1ccc(F)cc1)c1ccc2oc3ccccc3c2c1 ; melting point = 206.3 to 207 °C

Form field melting point, entry O=C(NNS(=O)(=O)c1c(Cl)cccc1Cl)c1ccc2oc3ccccc3c2c1 : 202 to 203 °C

----------
Target: rat BCAT cytosolic form (Rattus norvegicus, UniProt P54690)
Sequence (P54690 1-411): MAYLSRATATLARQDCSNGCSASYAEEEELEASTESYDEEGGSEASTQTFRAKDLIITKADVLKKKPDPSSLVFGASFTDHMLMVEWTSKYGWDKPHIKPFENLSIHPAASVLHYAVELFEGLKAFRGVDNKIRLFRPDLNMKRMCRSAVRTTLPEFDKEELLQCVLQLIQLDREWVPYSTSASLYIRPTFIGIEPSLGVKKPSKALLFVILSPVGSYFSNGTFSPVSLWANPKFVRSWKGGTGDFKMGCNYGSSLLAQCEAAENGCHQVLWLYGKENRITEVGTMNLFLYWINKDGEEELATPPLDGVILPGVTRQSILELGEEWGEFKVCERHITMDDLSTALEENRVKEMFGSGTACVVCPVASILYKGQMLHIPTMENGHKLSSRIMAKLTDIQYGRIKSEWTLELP
Assay: In vitro coupled enzyme assay (glutamate dehydrogenase, NADH formation), rat BCATc
Conditions: recombinant rat BCATc, 37° C., 25 mM phosphate buffer pH 7.8; several values in a cell = repeat determinations; read-out: RrBCATc
result.type: IC50 (µM)

- smiles.input: "Cc1c(C(=O)NNS(=O)(=O)c2ccccc2)oc2ccccc12"
  result.type: "IC50"
  measurement: 4

[A] O=C(NNS(=O)(=O)c1cccc(Cl)c1Cl)c1ccc2oc3ccccc3c2c1
[B] O=C(NNS(=O)(=O)c1ccccc1[N+](=O)[O-])c1ccc2oc3ccccc3c2c1
Which entry shows the lesser value of IC50 here, A or B ? Response format: the label of the selected entry. A
(A: 0.72 µM, B: 4 µM)
